Recorded Dmax values for a group of compounds are listed next.
tested system: BTK (Homo sapiens, UniProt Q06187)
Construct: endogenous in cells; host or cells: TMD-8 cells
Sequence (Q06187 whole entry): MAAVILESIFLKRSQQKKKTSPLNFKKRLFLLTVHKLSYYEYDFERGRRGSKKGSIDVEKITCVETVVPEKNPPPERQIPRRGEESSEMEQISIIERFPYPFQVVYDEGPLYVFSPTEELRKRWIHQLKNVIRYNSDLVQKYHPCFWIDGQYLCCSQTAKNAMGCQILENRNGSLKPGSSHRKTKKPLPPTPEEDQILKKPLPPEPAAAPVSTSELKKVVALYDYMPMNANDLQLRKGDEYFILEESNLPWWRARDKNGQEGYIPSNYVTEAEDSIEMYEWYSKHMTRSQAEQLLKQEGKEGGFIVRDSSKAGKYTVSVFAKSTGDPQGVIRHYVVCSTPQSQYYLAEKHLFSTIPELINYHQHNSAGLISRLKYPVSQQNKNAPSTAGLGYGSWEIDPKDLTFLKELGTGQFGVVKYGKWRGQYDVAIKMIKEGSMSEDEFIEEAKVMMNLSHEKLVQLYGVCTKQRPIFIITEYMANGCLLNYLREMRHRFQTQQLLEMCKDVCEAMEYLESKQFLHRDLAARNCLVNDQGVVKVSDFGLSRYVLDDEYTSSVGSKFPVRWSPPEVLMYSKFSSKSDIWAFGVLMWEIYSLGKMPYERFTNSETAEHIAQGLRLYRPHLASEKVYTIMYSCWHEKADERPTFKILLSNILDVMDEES
protocol: BTK degradation in TMD-8 cells, HTRF assay after 6 h treatment
Format: cell-based
experimental parameters: TMD8, maximum percentage of inhibition (degradation)
Your answer is read as %, so omit the unit and give the number.

Example results:
{"compound": "Cc1cc(-c2n[nH]c3ncc(-c4ccc(N5CCN(CC6CCN(c7ccc(N8CCC(=O)NC8=O)cc7)CC6)CC5)cc4)cc23)ccc1CNC(=O)c1cnn(C(C)(C)C)c1 [Example 32]", "tested system": "BTK (Homo sapiens, UniProt Q06187)", "Dmax / %": 93.6}
{"compound": "Cc1cc(-c2n[nH]c3ncc(-c4ccc(N5CCN(CC6CCN(c7ccc(N8CCC(=O)NC8=O)cc7)CC6)CC5)cc4)cc23)ccc1[C@@H](C)NC(=O)c1nc(C(C)(C)C)no1 [Example 21]", "tested system": "BTK (Homo sapiens, UniProt Q06187)", "Dmax / %": 97.5}

Could you now look at the following compound, please?
Qu. Looking for the measured Dmax of Cc1cc(-c2n[nH]c3ncc(-c4ccc(CCN5CCC(c6ccc(C7CCC(=O)NC7=O)cc6)CC5)cc4)cc23)ccc1CNC(=O)c1noc(C(C)(C)C)n1 (stereo not drawn) [Example 8] , can you help?
Ans. 101

The values you see were collected from patent US20230322761A1.
